Exercise: state measured % binding for each of the binders provided.
- STUDY SYSTEM: T1, RSV F A S443P-K445N (RSV A, strain A2, UniProt P03420 26-574)
- T1 construct: whole, on cells
- EXPERIMENT: FACS, % binding to RSV F A variants
Value expressed in %; do not type the unit.

Note to self: % binding recorded for MPK176-v1.3 (antibody, V domains shown) VH: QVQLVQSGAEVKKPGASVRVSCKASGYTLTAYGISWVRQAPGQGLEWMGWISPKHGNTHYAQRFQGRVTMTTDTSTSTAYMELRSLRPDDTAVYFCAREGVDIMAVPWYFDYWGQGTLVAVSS VL: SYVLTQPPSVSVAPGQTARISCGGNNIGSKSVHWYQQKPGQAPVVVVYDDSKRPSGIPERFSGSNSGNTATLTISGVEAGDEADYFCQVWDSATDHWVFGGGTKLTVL was 0.036

Note to self: % binding recorded for MPK201-v4.1 (antibody, V domains shown) VH: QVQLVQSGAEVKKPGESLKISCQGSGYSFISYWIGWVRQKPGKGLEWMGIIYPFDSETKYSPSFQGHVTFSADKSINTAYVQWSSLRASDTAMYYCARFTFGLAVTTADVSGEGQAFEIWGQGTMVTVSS VL: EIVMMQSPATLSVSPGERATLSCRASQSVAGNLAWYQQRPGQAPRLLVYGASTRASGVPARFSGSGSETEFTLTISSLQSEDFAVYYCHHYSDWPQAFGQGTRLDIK was 2700

Note to self: % binding recorded for MPK65-v2-v1.2 (antibody, V domains shown) VH: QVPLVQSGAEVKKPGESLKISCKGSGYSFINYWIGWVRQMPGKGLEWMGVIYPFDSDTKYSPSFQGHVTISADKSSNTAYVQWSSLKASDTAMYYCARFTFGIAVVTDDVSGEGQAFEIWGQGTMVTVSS VL: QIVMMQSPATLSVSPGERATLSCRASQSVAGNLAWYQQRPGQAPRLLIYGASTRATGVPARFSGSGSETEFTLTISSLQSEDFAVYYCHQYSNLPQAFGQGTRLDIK was 33.5

Note to self: % binding recorded for MPK201-v1.2 (antibody, V domains shown) VH: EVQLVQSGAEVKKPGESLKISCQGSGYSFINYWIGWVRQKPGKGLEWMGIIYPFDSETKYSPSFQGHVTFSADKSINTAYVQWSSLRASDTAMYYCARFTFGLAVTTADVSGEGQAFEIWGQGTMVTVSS VL: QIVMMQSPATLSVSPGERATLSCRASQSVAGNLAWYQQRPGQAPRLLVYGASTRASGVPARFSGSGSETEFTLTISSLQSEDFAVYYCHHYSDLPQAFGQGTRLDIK was 36
